Molecular target: Short transient receptor potential channel 4 (Mus musculus)
Sequence (Q9QUQ5 whole entry): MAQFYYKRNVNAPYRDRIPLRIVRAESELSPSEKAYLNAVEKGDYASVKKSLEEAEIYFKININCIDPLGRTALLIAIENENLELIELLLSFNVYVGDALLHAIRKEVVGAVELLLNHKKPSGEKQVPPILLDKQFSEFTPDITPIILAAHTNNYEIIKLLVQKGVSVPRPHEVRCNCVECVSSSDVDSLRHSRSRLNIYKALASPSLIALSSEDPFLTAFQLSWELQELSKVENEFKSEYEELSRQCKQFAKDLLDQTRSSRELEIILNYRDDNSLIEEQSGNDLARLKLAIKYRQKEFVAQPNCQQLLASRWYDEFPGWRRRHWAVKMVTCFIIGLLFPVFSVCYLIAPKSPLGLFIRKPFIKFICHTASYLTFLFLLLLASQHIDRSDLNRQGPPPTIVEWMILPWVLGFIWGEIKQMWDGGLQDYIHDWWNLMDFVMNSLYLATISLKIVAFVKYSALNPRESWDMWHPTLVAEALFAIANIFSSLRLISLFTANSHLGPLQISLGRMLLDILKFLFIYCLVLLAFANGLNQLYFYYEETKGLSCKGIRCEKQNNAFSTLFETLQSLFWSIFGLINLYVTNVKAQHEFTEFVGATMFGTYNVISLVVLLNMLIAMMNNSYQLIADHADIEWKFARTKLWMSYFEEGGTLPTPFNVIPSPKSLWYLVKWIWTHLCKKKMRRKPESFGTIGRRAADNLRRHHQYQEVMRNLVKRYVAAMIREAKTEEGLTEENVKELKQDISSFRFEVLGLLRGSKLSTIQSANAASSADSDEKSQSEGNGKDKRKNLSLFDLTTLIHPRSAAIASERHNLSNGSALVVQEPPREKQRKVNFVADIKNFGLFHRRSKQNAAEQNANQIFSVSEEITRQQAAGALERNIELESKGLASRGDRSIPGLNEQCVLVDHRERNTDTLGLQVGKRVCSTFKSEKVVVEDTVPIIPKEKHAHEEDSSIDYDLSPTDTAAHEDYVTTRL
Experiment: mouse TRPC4 channel inhibitors, dose response, cell-based, HEK293 TRPC4/mu-opioid, Fluo-4 calcium (AID 434942);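 further: potency of inhibitors blocking the TRPC4 calcium response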
Assay type: functional
The source made the active and inactive calls. How the calls were made is not given here.
Listing of recorded EC50 by entry.
MEASURED PARAMETER: EC50

MOLECULE	DATA VALUE
CC#CC[N+](C)(C)CCCCCCCCCCCC	1.5 µM (active)
Cc1ccccc1CN1CCCC(C(=O)Nc2ccccc2Oc2cccnc2)C1 (stereo unspecified)	5.31 µM (active)
O=C1CN=C(Nc2cccc(C(F)(F)F)c2)N1C1CCCC1	6.68 µM (active)
O=C(c1cccc(C(F)(F)F)c1)C1CCCN(Cc2ccccc2O)C1 (stereo unspecified)	2.37 µM (active)
CCCn1c(=O)c2ccccc2n2c(SCCOc3ccc(C)cc3)nnc12	1.68 µM (active)
CC1CCc2c(sc3ncnc(SCC(=O)Nc4ccc(C(=O)O)cc4)c23)C1 (stereo unspecified)	6.68 µM (active)
